# MEASUREMENT_TARGET: T1, Histidine-tagged human 4-1BB protein (h4-1BB-His) (human, UniProt Q07011 24-186)
# T1 construct: not shown: histidine tag
# RUN_DESCRIPTION: SPR (Biacore T200), antibody on Protein A chip, h4-1BB-His injected;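 also: dissociation phase followed for 300 s, Kd derived as koff divided by kon from the kinetic fit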
Record form. Attribute: kon. Fill in for each entry.
Give bare numbers, in M⁻¹ s⁻¹.

Look at each binder and report its kon.
1. 45-4B9-mHvKv-IgG2 (antibody, V domains shown) VH: EVQLQQSGPELVKPGASVKMSCKASGYTFTTYVMYWVKQRPGQGLEWIGYINPYNDDIRYNEKFKGKATLTSDRSSSTAYMELSSLTSEDSAVYLCARQGGDYWGQGTILTVSS VL: DVQITQSPSYLAASPGETITVNCRASKNINKYLAWYQEKPGKTNKLLIYSGSTLQSGIPSRFSGSGSGTDFTLTISSLEPEDFAVYHCQQYNEYPLTFGAGTKLEMK
2. 30-5F9-mHvKv-IgG4 (antibody, V domains shown) VH: QVQLKESGPGLVAPSQSLSITCTVSGFSLTTYDISWVRQPPGKGLEWLGVIWTGGGTNYNSSFMSRLSISKDNSKNQVFLKMNSLQVDDTAIYYCERVDYWGQGTTLTVSS VL: DVVMTQTPLSLPVSLGDQASISCRSSQSLVHSNGNTYLHWYLQKPGQSPKLLIYKVSNRFSGVPDRFSGSGSGTAFTFKISRVEAEDLGVYFCSQNTHVPWTFGGGTKLEIK
3. 6A5-H3K4-IgG2 (antibody, V domains shown, humanized) VH: QVQLVQSGAEVKKPGSSVKLSCKASGYTFSSYWINWVKQAPGQGLEWIGNIYPSDSYTNYNQKFKDKATLTVDKSTSTAYMELSSLRSEDTAVYYCTRTWEFYYDSVFDYWGQGTTLTVSS VL: DIQMTQSPSSLSASLGERVTITCKASQDINSYLSWFQQKPGKAPKTLIYRANRLVDGVPSRFSGSGSGQDYTLTISSLQPEDIATYYCLQYDELPPTFGGGTKLEIK

27200
249000
1.87e+06
